Experiment: Effect on fatty acid composition in human myotubes assessed as intracellular MUFA level at 10 uM after 96 hrs (Rvb= 41.04%)
Format: functional
// reported Activity for each item listed
Write the number in mol% without appending the unit.

{"columns": ["chemical string", "Activity, mol%"],
 "data": [
  ["CCCCCCCCCCCCCCSCC(=O)OC[C@H](COP(=O)([O-])OCC[N+](C)(C)C)OC(=O)CSCCCCCCCCCCCCCC", 37.48]
]}

Tell me the measured Activity of CCCCCCCCCCCCCCSCC(=O)O , please. 35.09

Reported Activity for CCCCCCCCCCCCCCSCC(=O)OC[C@@H](O)CO : what is it? 38.46

Requested read-out: Activity. Entry: CCCCCCCCCCCCCCSCC(=O)OC[C@@H](O)COP(=O)([O-])OCC[N+](C)(C)C 37.12

Activity lookup needed for CCCCCCC#CCCCCCCSCC(=O)O , thanks. 36.3

----------
Listed here are molecules together with their documented Activity.
Test: Effect on fatty acid composition in human myotubes assessed as change in intracellular SFA level at 30 uM after 96 hrs relative to DMSO control
Format: functional
Form entry: enter the amount, then its unit.

{"columns": ["molecule", "Activity"],
 "data": [
  ["CCCCCCCCCCCCCCSCC(=O)OC[C@H](COP(=O)([O-])OCC[N+](C)(C)C)OC(=O)CSCCCCCCCCCCCCCC [PHOSPHATIDYLCHOLINE]", "-11.8%"],
  ["CCCCCC/C=C\\CCCCCCSCC(=O)OC[C@H](COP(=O)([O-])OCC[N+](C)(C)C)OC(=O)CSCCCCCC/C=C\\CCCCCC", "4.5%"],
  ["CCCCCCCCCCCCCCSCC(=O)O [TETRADECYLTHIOACETIC ACID]", "-49.4%"],
  ["CCCCCCC#CCCCCCCSCC(=O)O", "0.7%"],
  ["CCCCCCCCCCCCCCSCC(=O)OC[C@@H](O)COP(=O)([O-])OCC[N+](C)(C)C", "-34.6%"],
  ["CCCCCCC#CCCCCCCSCC(=O)OC[C@@H](O)COP(=O)([O-])OCC[N+](C)(C)C", "4.5%"]
]}

Would you kindly look at the next entry?
Query (molecule): CCCCCCCCCCCCCCSCC(=O)OC[C@@H](O)CO ; field requested: Activity -38.1%

----------
Assay: Effect on fatty acid composition in human myotubes assessed as intracellular PUFA n-9 level at 30 uM after 96 hrs (Rvb= 1.78%)
Format: functional
reported metric: Activity (mol%)
Supply the numeric figure in mol%, leaving out any unit text.

Some solved cases for reference:
{"columns": ["chemical string", "value reported"],
 "data": [
  ["CCCCCCCCCCCCCCSCC(=O)O", 1.73],
  ["CCCCCCCCCCCCCCSCC(=O)OC[C@H](COP(=O)([O-])OCC[N+](C)(C)C)OC(=O)CSCCCCCCCCCCCCCC", 1.95],
  ["CCCCCCCCCCCCCCSCC(=O)OC[C@@H](O)CO", 1.68]
]}

Entry CCCCCCCCCCCCCCSCC(=O)OC[C@@H](O)COP(=O)([O-])OCC[N+](C)(C)C has what Activity? 1.97

For the molecule shown here, CCCCCCC#CCCCCCCSCC(=O)O , give the reported Activity. 0.87
